- assayed-target: AKT1 WT (Homo sapiens)
- experimental-details: Live cell target engagement by NanoBRET competitive probe displacement, AKT1 WT
- applied-conditions: transfected HEK293 cells, 2 h at 37° C., read-out: AKT1 WT IC50: GeoMean IC50

>  <compound>
Nc1ncccc1-c1nc2ccc(-n3cccn3)nc2n1-c1ccc2c(c1)CC[C@@H]2NC(=O)c1cc(C=O)c(O)c2nccn12 [Example 169]

>  <IC50>
≥ 2 µM

$$$$
>  <compound>
Nc1ncccc1-c1nc2ccc(-n3cc(F)cn3)nc2n1-c1ccc2c(c1)CC[C@@H]2NC(=O)c1ccc(O)c(C=O)c1 [Example 76]

>  <IC50>
0.1 to 2 µM

$$$$
>  <compound>
Nc1ncccc1-c1nc2ccc(-c3ccncc3)nc2n1-c1ccc2c(c1)CC[C@@H]2NC(=O)c1ccc(O)c(C=O)c1 [Example 24]

>  <IC50>
0.01 to 0.1 µM

$$$$
>  <compound>
Nc1ncccc1-c1nc2ccc(C(F)(F)F)nc2n1-c1ccc2c(c1)CC[C@@H]2NC(=O)c1ccc(O)c(C=O)c1 [Example 55]

>  <IC50>
0.1 to 2 µM

$$$$
>  <compound>
Nc1ncccc1-c1nc2ccc(Cl)nc2n1-c1ccc2c(c1)CC[C@@H]2NC(=O)c1ccc(O)c(C=O)c1 [Example 136]

>  <IC50>
0.1 to 2 µM

$$$$
>  <compound>
Nc1ncccc1-c1nc2ccc(-n3nccn3)nc2n1-c1ccc2c(c1)CC[C@@H]2NC(=O)c1cc(F)c(O)c(C=O)c1 [Example 115]

>  <IC50>
0.01 to 0.1 µM

$$$$
>  <compound>
Cc1cnc(-c2ccc3nc(-c4cccnc4N)n(-c4ccc5c(c4)CC[C@@H]5NC(=O)c4cc(C=O)c(O)cc4F)c3n2)s1 [Example 185]

>  <IC50>
0.01 to 0.1 µM

$$$$

---

- assayed-target: AKT1 E17K (Homo sapiens, UniProt P31749, E17K)
- Sequence (P31749 whole entry E17K): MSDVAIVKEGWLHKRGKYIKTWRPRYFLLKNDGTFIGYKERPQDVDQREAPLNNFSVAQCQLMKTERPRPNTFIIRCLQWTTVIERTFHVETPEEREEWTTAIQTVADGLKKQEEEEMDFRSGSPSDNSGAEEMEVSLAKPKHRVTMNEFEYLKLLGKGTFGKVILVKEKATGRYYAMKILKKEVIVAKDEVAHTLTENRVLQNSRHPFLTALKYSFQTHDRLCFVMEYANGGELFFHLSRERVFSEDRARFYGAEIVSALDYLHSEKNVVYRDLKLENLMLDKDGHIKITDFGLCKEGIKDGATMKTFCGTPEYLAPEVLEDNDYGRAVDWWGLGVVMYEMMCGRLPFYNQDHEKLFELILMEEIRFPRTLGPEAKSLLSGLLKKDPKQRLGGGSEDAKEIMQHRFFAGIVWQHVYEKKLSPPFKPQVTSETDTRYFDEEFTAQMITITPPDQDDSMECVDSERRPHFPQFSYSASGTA
- experimental-details: Live cell target engagement by NanoBRET competitive probe displacement, AKT1 E17K
- applied-conditions: transfected HEK293 cells, 2 h at 37° C., read-out: AKT1 E17K IC50: GeoMean IC50
endpoint-name: IC50

>  <smiles-string>
Nc1ncccc1-c1nc2c(-n3cccn3)cc(-n3cccn3)nc2n1-c1ccc2c(c1)CC[C@@H]2NC(=O)c1ccc(O)c(C=O)c1

>  <measured-result>
10 to 100 nM

$$$$
>  <smiles-string>
Cc1cc(-c2ncco2)nc2c1nc(-c1cccnc1N)n2-c1ccc2c(c1)CC[C@@H]2NC(=O)c1ccc(O)c(C=O)c1

>  <measured-result>
< 10 nM

$$$$
>  <smiles-string>
Nc1ncccc1-c1nc2ccc(N3CCOCC3)nc2n1-c1ccc2c(c1)CC[C@@H]2NC(=O)c1ccc(O)c(C=O)c1

>  <measured-result>
10 to 100 nM

$$$$
>  <smiles-string>
Cc1cc(-n2nccn2)nc2c1nc(-c1cccnc1N)n2-c1ccc2c(c1)CC[C@@H]2NC(=O)c1cc(C=O)c(O)c(F)c1F

>  <measured-result>
10 to 100 nM

$$$$
>  <smiles-string>
Cn1ccc(-c2ccc3nc(-c4cccnc4N)n(-c4ccc5c(c4)CC[C@@H]5NC(=O)c4cc(C=O)c(O)cc4F)c3n2)n1

>  <measured-result>
< 10 nM

$$$$

---

- assayed-target: AKT1 WT (Homo sapiens, UniProt P31749)
- Construct: expressed in transfected cells; host or cells: HEK293
- Sequence (P31749 whole entry): as the sequence (P31749 whole entry E17K) above, with K17E counted along it
- experimental-details: Live cell target engagement by NanoBRET competitive probe displacement, AKT1 WT
- Format: binding
- applied-conditions: transfected HEK293 cells, 2 h at 37° C., read-out: AKT1 WT IC50: GeoMean IC50

>  <compound>
Nc1ncccc1-c1nc2ccc(-n3cccn3)nc2n1-c1ccc2c(c1)CC[C@@H]2NCc1cc(C=O)c(O)cc1F [Example 239]

>  <assayed-target>
AKT1 WT (Homo sapiens, UniProt P31749)

>  <IC50>
10 to 100 nM

$$$$
>  <compound>
Nc1ncccc1-c1nc2ccc(-n3cccn3)nc2n1-c1ccc2c(c1)CC[C@@H]2NC(=O)c1ccc(O)c(C=O)c1F [Example 255]

>  <assayed-target>
AKT1 WT (Homo sapiens, UniProt P31749)

>  <IC50>
100 to 2000 nM

$$$$
>  <compound>
Nc1ncccc1-c1nc2ccc(-n3cccn3)nc2n1-c1cc(F)c2c(c1)CC[C@@H]2NC(=O)c1ccc(O)c(C=O)c1 [Example 189]

>  <assayed-target>
AKT1 WT (Homo sapiens, UniProt P31749)

>  <IC50>
100 to 2000 nM

$$$$
>  <compound>
Cc1ccc2nc(-c3cccnc3N)n(-c3ccc4c(c3)CC[C@@H]4NC(=O)c3ccc(O)c(C=O)c3)c2n1 [Example 13]

>  <assayed-target>
AKT1 WT (Homo sapiens, UniProt P31749)

>  <IC50>
100 to 2000 nM

$$$$
>  <compound>
Nc1ncccc1-c1nc2ccc(-n3cccn3)nc2n1-c1ccc2c(c1)CC[C@@H]2NC(=O)c1cc(C=O)c(O)cc1-n1cccn1 [Example 205]

>  <assayed-target>
AKT1 WT (Homo sapiens, UniProt P31749)

>  <IC50>
10 to 100 nM

$$$$
>  <compound>
Nc1ncccc1-c1nc2ccc(-c3ccccc3)nc2n1-c1ccc2c(c1)CCC2C(=O)Nc1ccc(O)c(C=O)c1 (stereo not shown) [Example 27]

>  <assayed-target>
AKT1 WT (Homo sapiens, UniProt P31749)

>  <IC50>
100 to 2000 nM

$$$$
>  <compound>
Nc1ncccc1-c1nc2c(N3CCOCC3)cc(-n3cccn3)nc2n1-c1ccc2c(c1)CC[C@@H]2NC(=O)c1ccc(O)c(C=O)c1 [Example 224]

>  <assayed-target>
AKT1 WT (Homo sapiens, UniProt P31749)

>  <IC50>
10 to 100 nM

$$$$
>  <compound>
COc1cnc(-c2ccc3nc(-c4cccnc4N)n(-c4ccc5c(c4)CC[C@@H]5NC(=O)c4ccc(O)c(C=O)c4)c3n2)cn1 [Example 71]

>  <assayed-target>
AKT1 WT (Homo sapiens, UniProt P31749)

>  <IC50>
10 to 100 nM

$$$$
>  <compound>
CN1CCN(c2cccc(-c3ccc4nc(-c5cccnc5N)n(-c5ccc6c(c5)CC[C@@H]6NC(=O)c5ccc(O)c(C=O)c5)c4n3)c2)CC1 [Example 19]

>  <assayed-target>
AKT1 WT (Homo sapiens, UniProt P31749)

>  <IC50>
< 10 nM

$$$$
>  <compound>
Nc1ncccc1-c1nc2ccc(-n3cccn3)nc2n1-c1ccc2c(c1)CC(F)[C@@H]2NC(=O)c1cc(C=O)c(O)cc1F (single isomer, unassigned) [Example 258]

>  <assayed-target>
AKT1 WT (Homo sapiens, UniProt P31749)

>  <IC50>
10 to 100 nM

$$$$
>  <compound>
Nc1ncccc1-c1nc2ccc(-c3ccccc3)nc2n1-c1ccc2c(c1)CC[C@@H]2NC(=O)C1(c2cnc(C=O)c(O)c2)CC1 [Example 12]

>  <assayed-target>
AKT1 WT (Homo sapiens, UniProt P31749)

>  <IC50>
100 to 2000 nM

$$$$
>  <compound>
Nc1ncccc1-c1nc2ccc(-c3ccccc3)nc2n1-c1ccc2c(c1)C(=O)C[C@@H]2NC(=O)c1ccc(O)c(C=O)c1 [Example 74]

>  <assayed-target>
AKT1 WT (Homo sapiens, UniProt P31749)

>  <IC50>
100 to 2000 nM

$$$$
>  <compound>
Nc1ncccc1-c1nc2ccc(-n3ccc(F)n3)nc2n1-c1ccc2c(c1)CC[C@@H]2NC(=O)c1cc(C=O)c(O)c(F)c1F [Example 125]

>  <assayed-target>
AKT1 WT (Homo sapiens, UniProt P31749)

>  <IC50>
10 to 100 nM

$$$$
>  <compound>
C#Cc1ccc2nc(-c3cccnc3N)n(-c3ccc4c(c3)CC[C@@H]4NC(=O)c3ccc(O)c(C=O)c3)c2n1 [Example 50]

>  <assayed-target>
AKT1 WT (Homo sapiens, UniProt P31749)

>  <IC50>
100 to 2000 nM

$$$$
>  <compound>
Nc1ncccc1-c1nc2ccc(-n3cncn3)nc2n1-c1ccc2c(c1)CC[C@@H]2NC(=O)c1ccc(O)c(C=O)c1 [Example 97]

>  <assayed-target>
AKT1 WT (Homo sapiens, UniProt P31749)

>  <IC50>
100 to 2000 nM

$$$$
>  <compound>
Nc1ncccc1-c1nc2ccc(-c3ccccc3)nc2n1-c1ccc2c(c1)CC[C@@H]2NC(=O)c1ccc(C=O)c(O)c1 [Example 30]

>  <assayed-target>
AKT1 WT (Homo sapiens, UniProt P31749)

>  <IC50>
100 to 2000 nM

$$$$
>  <compound>
Cn1c(=O)[nH]c2c(C=O)cc(C(=O)N[C@H]3CCc4cc(-n5c(-c6cccnc6N)nc6ccc(-n7cccn7)nc65)ccc43)cc21 [Example 170]

>  <assayed-target>
AKT1 WT (Homo sapiens, UniProt P31749)

>  <IC50>
< 10 nM

$$$$
>  <compound>
Nc1ncccc1-c1nc2ccc(-n3cccn3)nc2n1-c1ccc2c(c1)C1CC1C2NC(=O)c1ccc(O)c(C=O)c1 (stereo not shown) [Example 252]

>  <assayed-target>
AKT1 WT (Homo sapiens, UniProt P31749)

>  <IC50>
100 to 2000 nM

$$$$
>  <compound>
Nc1cc(O)c(C=O)cc1C(=O)N[C@H]1CCc2cc(-n3c(-c4cccnc4N)nc4ccc(-n5cccn5)nc43)ccc21 [Example 237]

>  <assayed-target>
AKT1 WT (Homo sapiens, UniProt P31749)

>  <IC50>
10 to 100 nM

$$$$
>  <compound>
Nc1ncccc1-c1nc2ccc(-c3ccccc3)nc2n1-c1ccc2c(c1)CC[C@@H]2NC(=O)c1cc(C=O)c2[nH]ncc2c1 [Example 35]

>  <assayed-target>
AKT1 WT (Homo sapiens, UniProt P31749)

>  <IC50>
10 to 100 nM

$$$$
>  <compound>
Nc1ncccc1-c1nc2ccc(-n3cccn3)nc2n1-c1ccc2c(c1)CC[C@@H]2NC(=O)Cc1ccc(C=O)c(O)c1F [Example 216, trifluoroacetic acid]

>  <assayed-target>
AKT1 WT (Homo sapiens, UniProt P31749)

>  <IC50>
100 to 2000 nM

$$$$
>  <compound>
COc1ccc2nc(-c3cccnc3N)n(-c3ccc4c(c3)CC[C@@H]4NC(=O)c3ccc(O)c(C=O)c3)c2n1 [Example 46]

>  <assayed-target>
AKT1 WT (Homo sapiens, UniProt P31749)

>  <IC50>
100 to 2000 nM

$$$$
>  <compound>
Nc1ncccc1-c1nc2ccc(-n3cccn3)nc2n1-c1ccc2c(c1)CC[C@@H]2NC(=O)c1cc(C=O)c(O)c(C(F)(F)F)c1 [Example 100]

>  <assayed-target>
AKT1 WT (Homo sapiens, UniProt P31749)

>  <IC50>
100 to 2000 nM

$$$$
>  <compound>
Nc1ncccc1-c1nc2ccc(-c3ncc(C(F)F)s3)nc2n1-c1ccc2c(c1)CC[C@@H]2NC(=O)c1ccc(O)c(C=O)c1 [Example 146]

>  <assayed-target>
AKT1 WT (Homo sapiens, UniProt P31749)

>  <IC50>
100 to 2000 nM

$$$$
>  <compound>
Cc1cc(-n2nccn2)nc2c1nc(-c1cccnc1N)n2-c1ccc2c(c1)CC[C@@H]2NC(=O)c1ccc(O)c(C=O)c1 [Example 234]

>  <assayed-target>
AKT1 WT (Homo sapiens, UniProt P31749)

>  <IC50>
10 to 100 nM

$$$$
